# Test system: Cotton Aphid (CA)
# test details: Cotton aphid (CA) foliar spray test, essentially the bean aphid method
# Assay type: in vivo
# reported conditions: rating scale
endpoint label: CA-FOLIAR 300 (ppm)

- Fc1cccc(Oc2nccc(-c3cc(Cl)c(Cl)c(C(F)(F)F)c3)n2)c1: A (A 0-45% kill)
- FC(F)(F)c1cc(-c2ccnc(Oc3ccccc3)n2)cc(Cl)c1Cl: C (C 76-100% kill)
- Fc1cc(-c2ccnc(Oc3ccc(F)c(C(F)(F)F)c3)n2)ccc1Cl: B (B 45-75% kill)
- Fc1cccc(-c2ccnc(Oc3ccc(F)c(C(F)(F)F)c3)n2)c1: C (C 76-100% kill)
- Fc1ccc(Oc2nccc(-c3cccc(Cl)c3)n2)cc1C(F)(F)F: A (A 0-45% kill)
- Fc1ccc(-c2ccnc(Oc3cccc(C(F)(F)F)c3)n2)cc1C(F)(F)F: B (B 45-75% kill)
- FC(F)(F)c1cccc(Oc2nccc(-c3cccc(Cl)c3)n2)c1: C (C 76-100% kill)

###

# Test system: Aphis Fabae, Mixed Instar, Bean Aphid (BA)
# test details: Bean aphid (BA) foliar spray test, mortality after 2 days
# Type: in vivo
# reported conditions: rating scale
endpoint label: BA AD-FOLIAR 300 (ppm)

* FC(F)(F)c1cccc(-c2ccnc(Oc3ccc(Cl)c(Cl)c3)n2)c1 [Compound 20] | B (B 45-75% kill)
* Fc1ccc(Oc2nccc(-c3ccc(C(F)(F)F)cc3)n2)cc1Cl | B (B 45-75% kill)
* FC(F)(F)c1cc(-c2ccnc(Oc3ccccc3)n2)cc(Cl)c1Cl | A (A 0-45% kill)
* FC(F)(F)c1ccc(-c2ccnc(Oc3ccc(Cl)c(Cl)c3)n2)cc1 | A (A 0-45% kill)
* CC(C)(C)c1ccc(-c2ccnc(Oc3ccc([N+](=O)[O-])c(C(F)(F)F)c3)n2)cc1 | B (B 45-75% kill)
* FC(F)(F)Oc1ccc(-c2ccnc(Oc3ccc(Cl)c(Cl)c3)n2)cc1 | B (B 45-75% kill)
* FC(F)(F)c1cccc(-c2ccnc(Oc3ccc(Cl)c(Cl)c3)n2)c1 [Compound 18] | A (A 0-45% kill)
* Fc1ccc(Oc2nccc(-c3ccc(OC(F)(F)F)cc3)n2)cc1Cl | A (A 0-45% kill)

###

# System: Diabrotica Virgifera Virgifera Leconte, 3rd Instar Western Corn Rootworm (WCR)
# test details: Western corn rootworm (WCR) soil test, mortality at 5 days
# Assay type: in vivo
# reported conditions: rating scale
endpoint label: WCR 2^ND-SOIL 50 (ppm)

* FC(F)(F)Oc1cccc(-c2ccnc(Oc3ccc(Cl)c(C(F)(F)F)c3)n2)c1 | B (B 45-75% kill)
* Fc1cc(-c2ccnc(Oc3cc(Cl)cc(Cl)c3)n2)cc(C(F)(F)F)c1 | C (C 76-100% kill)
* FC(F)(F)c1cccc(Oc2nccc(-c3ccccc3)n2)c1 | C (C 76-100% kill)
* CCc1ccc(-c2ccnc(Oc3ccc(Cl)c(Cl)c3)n2)cc1 | C (C 76-100% kill)
* FC(F)(F)Oc1cccc(-c2ccnc(Oc3cccc(C(F)(F)F)c3)n2)c1 | C (C 76-100% kill)
* Fc1cc(-c2ccnc(Oc3ccc(Cl)c(C(F)(F)F)c3)n2)cc(C(F)(F)F)c1 | C (C 76-100% kill)
* Fc1cc(-c2ccnc(Oc3ccc(F)c(Cl)c3)n2)cc(C(F)(F)F)c1 | B (B 45-75% kill)
* Fc1ccc(Oc2nccc(-c3cccc(C(F)(F)F)c3)n2)cc1C(F)(F)F | C (C 76-100% kill)
* CSc1cc(-c2cccc(Cl)c2)nc(Oc2ccc(Cl)c(C(F)(F)F)c2)n1 | B (B 45-75% kill)
* FC(F)(F)Oc1cccc(-c2ccnc(Oc3cc(C(F)(F)F)cc(C(F)(F)F)c3)n2)c1 | B (B 45-75% kill)
* COc1ccc(-c2ccnc(Oc3ccc(Cl)c(C(F)(F)F)c3)n2)cc1 | C (C 76-100% kill)
* CC(C)(C)c1ccc(-c2ccnc(Oc3ccc(F)c(C(F)(F)F)c3)n2)cc1 | C (C 76-100% kill)
* Fc1cccc(Oc2nccc(-c3cc(Cl)c(Cl)c(C(F)(F)F)c3)n2)c1 | C (C 76-100% kill)
* Fc1ccc(-c2ccnc(Oc3cccc(C(F)(F)F)c3)n2)cc1 | B (B 45-75% kill)
* O=[N+]([O-])c1ccc(Oc2nccc(-c3cc(F)cc(C(F)(F)F)c3)n2)cc1C(F)(F)F | C (C 76-100% kill)
* Fc1cc(-c2ccnc(Oc3cc(C(F)(F)F)cc(C(F)(F)F)c3)n2)cc(C(F)(F)F)c1 | C (C 76-100% kill)
* Fc1ccc(Oc2nccc(-c3ccc(OC(F)(F)F)cc3)n2)cc1Cl | C (C 76-100% kill)

###

# Tested on: Diabrotica Virgifera Virgifera Leconte, 3rd Instar Western Corn Rootworm (WCR)
# test details: Western corn rootworm (WCR) soil test, mortality at 5 days
# Assay type: in vivo
# reported conditions: Diabrotica virgifera, 120 h, rating scale, read-out: WCR 2^ND-SOIL 50 (ppm)
Below, each entry is listed alongside its reported pest or weed control at 50 ppm.
endpoint label: pest or weed control at 50 ppm

- CCc1cnc(Oc2cccc(C(F)(F)F)c2)nc1-c1cccc(C(F)(F)F)c1: 76 to 100%
- CCc1cnc(Oc2cccc(C(F)(F)F)c2)nc1-c1ccc(Cl)cc1: 76 to 100%
- Fc1ccc(-c2ccnc(Oc3ccc(F)c(C(F)(F)F)c3)n2)cc1: 76 to 100%
- CSc1cc(-c2ccc(Cl)cc2)nc(Oc2ccc(F)c(C(F)(F)F)c2)n1: 76 to 100%
- Fc1ccc(Oc2nccc(-c3ccc(Cl)cc3)n2)cc1F: 76 to 100%

###

# System: Spodoptera Eridania, 3rd Instar Larvae, Southern Armyworm (SAW)
# test details: Southern armyworm (SAW) leaf-dip test, observations at 5 days
# Assay type: in vivo
# reported conditions: Southern Army Worm, rating scale
endpoint label: SAW 2^ND-FOLIAR 1000 (ppm)

* FC(F)(F)Oc1ccc(-c2ccnc(Oc3ccc(Cl)c(C(F)(F)F)c3)n2)cc1 | B (B 45-75% kill)
* FC(F)(F)c1cc(Oc2nccc(-c3ccc(Cl)cc3)n2)ccc1Cl | A (A 0-45% kill)
* Fc1ccc(Oc2nccc(-c3ccc(OC(F)(F)F)cc3)n2)cc1Cl | A (A 0-45% kill)
* Fc1cc(-c2ccnc(Oc3ccc(Cl)c(C(F)(F)F)c3)n2)cc(C(F)(F)F)c1 | B (B 45-75% kill)
* CCc1ccc(-c2ccnc(Oc3ccc(F)c(Cl)c3)n2)cc1 | C (C 76-100% kill)
* FC(F)(F)c1cccc(Oc2nccc(-c3ccccc3)n2)c1 | A (A 0-45% kill)
* Fc1cc(-c2ccnc(Oc3ccccc3)n2)cc(C(F)(F)F)c1 | C (C 76-100% kill)
* Fc1ccc(Oc2nccc(-c3ccc(OC(F)(F)F)cc3)n2)cc1C(F)(F)F | A (A 0-45% kill)
* Fc1ccc(Oc2nccc(-c3ccccc3)n2)cc1C(F)(F)F | A (A 0-45% kill)
* Fc1cc(-c2ccnc(Oc3cc(C(F)(F)F)cc(C(F)(F)F)c3)n2)cc(C(F)(F)F)c1 | C (C 76-100% kill)
* FC(F)(F)Oc1ccc(-c2ccnc(Oc3cccc(C(F)(F)F)c3)n2)cc1 | A (A 0-45% kill)
* CCc1ccc(-c2ccnc(Oc3ccc(Cl)c(Cl)c3)n2)cc1 | C (C 76-100% kill)
* O=[N+]([O-])c1ccc(Oc2nccc(-c3ccccc3)n2)cc1C(F)(F)F | A (A 0-45% kill)
* FC(F)(F)Oc1ccc(-c2ccnc(Oc3cc(Cl)cc(Cl)c3)n2)cc1 | A (A 0-45% kill)
* O=[N+]([O-])c1ccc(Oc2nccc(-c3cccc(OC(F)(F)F)c3)n2)cc1C(F)(F)F | A (A 0-45% kill)
* Fc1cc(-c2ccnc(Oc3cccc(C(F)(F)F)c3)n2)cc(C(F)(F)F)c1 | A (A 0-45% kill)
* FC(F)(F)c1cccc(-c2ccnc(Oc3ccc(Cl)c(Cl)c3)n2)c1 [Compound 20] | A (A 0-45% kill)
* FC(F)(F)c1cccc(-c2ccnc(Oc3ccc(Cl)c(Cl)c3)n2)c1 [Compound 18] | A (A 0-45% kill)

###

# Tested on: Spodoptera Eridania, 3rd Instar Larvae, Southern Armyworm (SAW)
# test details: Southern armyworm (SAW) leaf-dip test, observations at 5 days
# Format: in vivo
# reported conditions: Southern Army Worm, rating scale
endpoint label: SAW 2^ND-FOLIAR 1000 (ppm)

* FC(F)(F)Oc1ccc(-c2ccnc(Oc3ccc(Cl)c(Cl)c3)n2)cc1 [Compound 50] | A (A 0-45% kill)
* Fc1ccc(Oc2nccc(-c3cccc(OC(F)(F)F)c3)n2)cc1C(F)(F)F [Compound 37] | C (C 76-100% kill)
* Fc1ccc(Oc2nccc(-c3ccc(C(F)(F)F)cc3)n2)cc1C(F)(F)F [Compound 29] | A (A 0-45% kill)
* FC(F)(F)c1ccc(-c2ccnc(Oc3cccc(C(F)(F)F)c3)n2)cc1 [Compound 30] | A (A 0-45% kill)
* Fc1cc(F)cc(-c2ccnc(Oc3ccc(F)c(C(F)(F)F)c3)n2)c1 [Compound 62] | C (C 76-100% kill)
* Fc1cc(-c2ccnc(Oc3ccc(F)c(C(F)(F)F)c3)n2)cc(C(F)(F)F)c1 [Compound 53] | A (A 0-45% kill)
